TESTED_ON: human TYK2 kinase domain (JH1) (Homo sapiens)
Construct: recombinantly generated catalytic kinase (also known as JH1) domain of human JAK1, JAK2, JAK3 and TYK2
EXPERIMENT: JH1 biochemical assay for TYK2 (ADP-Glo kinase assay, recombinant JH1 catalytic domain, JAK3-974 peptide, 10 μM ATP)
TEST_CONDITIONS: TYK2 JH1, ADP-Glo
Counter-ions that a name gives are not always drawn.
Measured IC50 values are reported for all entries that follow.

For orientation, consider the following solved cases.
Bench note, human TYK2 kinase domain (JH1) (Homo sapiens): entry `C[C@@H]1CN(c2nc(-c3cccnc3)cn3ncc(F)c23)C(=O)[C@]1(C#N)C1CC1` , its IC50 = 50 to 100 nM

Form: item CNC(=O)c1ccc(-c2cn3nccc3c(N3C[C@@H](C)[C@@](C#N)(C4CC4)C3=O)n2)cn1 [Example 227, trifluoroacetate] ; test system human TYK2 kinase domain (JH1) (Homo sapiens); IC50: < 5 nM

Entry `C[C@@H]1CN(c2nc(-c3cnn([C@H]4C[C@H](C#N)C4)c3)cn3ncc(F)c23)C(=O)[C@]1(C#N)C1CC1` , tested on human TYK2 kinase domain (JH1) (Homo sapiens), has a reported IC50 of < 5 nM

Here `C[C@@H]1CN(c2nc(-c3cnn(C4(C)COC4)c3)cn3ncc(F)c23)C(=O)[C@]1(C#N)C1CC1` was tested on human TYK2 kinase domain (JH1) (Homo sapiens), and its IC50 came to < 5 nM

The value of IC50 recorded for `C[C@@H]1CN(c2nc(-c3cnn(CC4(C)COC4)c3)cn3ncc(F)c23)C(=O)[C@]1(C#N)C1CC1` when tested on human TYK2 kinase domain (JH1) (Homo sapiens) reads < 5 nM

---
Test item `Cc1ncn(-c2cc3c(N4C[C@@H](C)[C@@](C#N)(C5CC5)C4=O)ccnn3c2)n1` ; human TYK2 kinase domain (JH1) (Homo sapiens); reported IC50 was > 100 nM

Readout IC50 for `C[C@@H]1CN(c2cc(-c3cnn(C4COC4)c3)cc3ncsc23)C(=O)[C@]1(C#N)C1CC1` , test system human TYK2 kinase domain (JH1) (Homo sapiens), was < 5 nM

Entry `C[C@@H]1CN(c2nc(-c3cnn(CC4COC4)c3)cn3ncc(F)c23)C(=O)[C@]1(C#N)C1CC1` , human TYK2 kinase domain (JH1) (Homo sapiens) data, IC50 value: < 5 nM

# C[C@@H]1CN(c2nc(-c3ccn(C)n3)cn3nccc23)C(=O)[C@]1(C#N)C1CC1 [Example 229, trifluoroacetate] with human TYK2 kinase domain (JH1) (Homo sapiens): IC50 is > 100 nM

---

TESTED_ON: human JAK2 kinase domain (JH1) (Homo sapiens)
Construct: recombinantly generated catalytic kinase (also known as JH1) domain of human JAK1, JAK2, JAK3 and TYK2
Sequence (O60674 849-1124 limits assumed): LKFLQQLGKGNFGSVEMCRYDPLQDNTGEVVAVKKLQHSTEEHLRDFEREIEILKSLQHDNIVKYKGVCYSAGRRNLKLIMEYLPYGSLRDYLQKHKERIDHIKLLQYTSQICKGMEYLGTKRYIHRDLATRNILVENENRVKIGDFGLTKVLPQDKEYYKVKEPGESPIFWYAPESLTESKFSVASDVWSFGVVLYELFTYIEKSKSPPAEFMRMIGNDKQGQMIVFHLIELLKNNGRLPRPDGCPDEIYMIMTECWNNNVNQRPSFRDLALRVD
EXPERIMENT: JH1 biochemical assay for JAK2 (ADP-Glo kinase assay, recombinant JH1 catalytic domain, JAK3-974 peptide, 15 μM ATP)
TEST_CONDITIONS: JH1 kinase domain, ADP-Glo
This section presents compounds with their documented IC50 values.

Guide cases for IC50, answers given:
compound `Cc1c(-c2cc3c(N4C[C@@H](C)[C@@](C#N)(C5CC5)C4=O)ccnn3c2)cnn1C` , IC50 observed: 100 to 1000 nM

The measured IC50 associated with `COc1cc(-c2cc3c(N4CC[C@](C#N)(C5CC5)C4=O)ccnn3c2)ccn1` reads > 10000 nM

Others:
Recorded IC50 (compound `C[C@@H]1CN(c2ccnn3cc(-c4cccnc4)cc23)C(=O)[C@]1(C#N)C1CC1` ): 100 to 1000 nM

Per the records, this compound ( `Cc1c(-c2cn3nccc3c(N3C[C@@H](C)[C@@](C#N)(C4CC4)C3=O)n2)cnn1C` ) has IC50 equal to 100 to 1000 nM

---

TESTED_ON: human TYK2 kinase domain (JH1) (Homo sapiens)
Construct: recombinantly generated catalytic kinase (also known as JH1) domain of human JAK1, JAK2, JAK3 and TYK2
Sequence (P29597 897-1176 limits assumed): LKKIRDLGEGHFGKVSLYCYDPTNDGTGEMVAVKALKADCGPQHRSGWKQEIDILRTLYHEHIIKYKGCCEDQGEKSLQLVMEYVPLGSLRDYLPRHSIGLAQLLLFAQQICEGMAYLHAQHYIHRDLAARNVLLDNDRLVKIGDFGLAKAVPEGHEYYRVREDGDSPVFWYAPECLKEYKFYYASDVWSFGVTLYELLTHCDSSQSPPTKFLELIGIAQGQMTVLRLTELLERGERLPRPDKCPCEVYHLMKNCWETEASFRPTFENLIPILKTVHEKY
EXPERIMENT: JH1 biochemical assay for TYK2 (ADP-Glo kinase assay, recombinant JH1 catalytic domain, JAK3-974 peptide, 10 μM ATP)
TEST_CONDITIONS: JH1 kinase domain, ADP-Glo
pIC50: −log10 of the molar value. Where a name gives a salt, the structure may show the parent alone.
// reported pIC50 per item

Entry `C[C@@H]1CN(c2ccnn3cc(-c4cnn(C5CCCCC5)c4)cc23)C(=O)[C@]1(C#N)C1CC1` ; assay system human TYK2 kinase domain (JH1) (Homo sapiens); pIC50 recorded at > 8.30

---
// returns pIC50 for CC(O)c1ccc(-c2cc3c(N4C[C@@H](C)[C@@](C#N)(C5CC5)C4=O)ccnn3c2)nc1 (stereo partly shown) [Example 130, trifluoroacetate] with human TYK2 kinase domain (JH1) (Homo sapiens); value = 7.70 to 8.30

Hey, human TYK2 kinase domain (JH1) (Homo sapiens) data for COc1cccc(-c2cc3c(N4C[C@@H](C)[C@@](C#N)(C5CC5)C4=O)ccnn3c2)n1 [Example 143, trifluoroacetate] : pIC50 came out at 7.30 to 7.70

The measured pIC50 that `C[C@@H]1CN(c2ccnn3cc(-c4cnn(C)c4)cc23)C(=O)[C@@]1(C#N)C1CC1` showed for human TYK2 kinase domain (JH1) (Homo sapiens) is < 7.00

Reading of pIC50 for C[C@@H]1CN(c2ccnn3cc(-c4nccn5ccnc45)cc23)C(=O)[C@]1(C#N)C1CC1 [Example 123, trifluoroacetate] with human TYK2 kinase domain (JH1) (Homo sapiens): < 7.00

Record Cn1cc(-c2cc3c(N4CC[C@](C)(C#N)C4=O)ccnn3c2)cn1 (single isomer, unassigned) has human TYK2 kinase domain (JH1) (Homo sapiens) pIC50 equal to < 7.00

pIC50 of `CCn1cc(-c2cn3ncc(F)c3c(N3C[C@@H](C)[C@@](C#N)(C4CC4)C3=O)n2)cn1` , assay on human TYK2 kinase domain (JH1) (Homo sapiens), is > 8.30

---

In this section, each of the compounds is paired with its reported IC50.
TESTED_ON: Tyk2 kinase activity on STAT4 in NK92 cells (Homo sapiens, UniProt P29597)
EXPERIMENT: pSTAT4 cell assay (MSD; NK92 cells, 30 ng/mL IL2 stimulation)
TEST_CONDITIONS: 30 ng/mL IL2, 15 minutes
Procedure: The inhibitory potency of compounds of the disclosure against the Tyk2 kinase activity on STAT4 was evaluated using an MSD-platform plate-based assay format. NK92 cells natively expressing STAT4 and Tyk2 were serum-starved to reduce background phosphorylation levels, then cells were treated compounds for 1 hr with a 10-point four-fold dilution series starting at 10 μM. […] Cells were lysed and pSTAT5 levels were quantitated using an MSD plate-based assay with anti-STAT4 antibodies. […]
Structures can show the parent of a compound that is named as a salt.

Some solved entries appear below for comparison.
Entry C[C@@H]1CN(c2nc(-c3cnn4c3COCC4)cn3ncc(F)c23)C(=O)[C@]1(C#N)C1CC1 [Example 192] — recorded IC50 = > 0.1 µM

Quick note, IC50 for C[C@@H]1CN(c2ccnc3cc(-c4cnn(C5CC5)c4)oc23)C(=O)[C@]1(C#N)C1CC1 [Example 347] landed at > 0.1 µM

The measured IC50 associated with C[C@@H]1CN(c2nc(-c3cnn([C@H]4C[C@@](C)(C#N)C4)c3)cn3ncc(F)c23)C(=O)[C@]1(C#N)C1CC1 [Example 307] reads 0.05 to 0.1 µM

Next compound, please.
Measured IC50 of C[C@@H]1CN(c2ccnn3cc(-c4ccc(N(C)C)cn4)cc23)C(=O)[C@]1(C#N)C1CC1 [Example 134, trifluoroacetate] : > 0.1 µM

---

TESTED_ON: human JAK3 kinase domain (JH1) (Homo sapiens, UniProt P52333)
Construct: recombinantly generated catalytic kinase (also known as JH1) domain of human JAK1, JAK2, JAK3 and TYK2
Sequence (P52333 822-1111 limits assumed): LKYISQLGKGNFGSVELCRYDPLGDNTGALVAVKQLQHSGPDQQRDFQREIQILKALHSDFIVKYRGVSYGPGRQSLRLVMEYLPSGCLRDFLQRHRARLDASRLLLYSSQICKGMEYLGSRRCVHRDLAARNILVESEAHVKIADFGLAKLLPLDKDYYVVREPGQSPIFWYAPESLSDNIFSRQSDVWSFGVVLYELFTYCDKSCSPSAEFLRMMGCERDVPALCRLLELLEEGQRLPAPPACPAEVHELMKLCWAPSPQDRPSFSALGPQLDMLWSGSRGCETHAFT
EXPERIMENT: JH1 biochemical assay for JAK3 (ADP-Glo kinase assay, recombinant JH1 catalytic domain, JAK3-974 peptide, 4 μM ATP)
TEST_CONDITIONS: JH1 kinase domain, ADP-Glo
Structures can show the parent of a compound that is named as a salt.
RESULT_TYPE: IC50

Lab note: `C[C@@H]1CN(c2ccnn3cc(-c4cnn(C5CC5)c4)cc23)C(=O)[C@]1(C#N)C1CC1` gave IC50 of 100 to 1000 nM

---
Data point: `COc1cc(-c2cn3nccc3c(N3C[C@@H](C)[C@@](C#N)(C4CC4)C3=O)n2)c(F)cn1` ; IC50 = 100 to 1000 nM

Record `CNC(=O)c1ccc(-c2cc3c(N4C[C@@H](C)[C@@](C#N)(C5CC5)C4=O)ccnn3c2)cn1` , field IC50: 100 to 1000 nM

// IC50 lookup, compound = CC[C@@]1(C#N)CCN(c2ccnn3cc(-c4cnn(C)c4)cc23)C1=O (single isomer, unassigned) , result: > 10000 nM

Lookup result for `C[C@@H]1CN(c2nc(-c3cnn(C4CCOCC4)c3)cn3nccc23)C(=O)[C@]1(C#N)C1CC1` ; measured IC50: < 100 nM

IC50 reading for `CC(C)n1cc(-c2cn3ncc(F)c3c(N3C[C@@H](C)[C@@](C#N)(C4CC4)C3=O)n2)cn1` : < 100 nM

Value of IC50 reported for the compound C[C@@H]1CN(c2ccnn3cc(-c4ncccc4O)cc23)C(=O)[C@]1(C#N)C1CC1 [Example 149, trifluoroacetate] is 1000 to 5000 nM
